- Tested on: Staphylococcus epidermidis
- Method description: Antibacterial activity against Staphylococcus epidermidis after 17 hrs by serial two fold dilution method
- Assay type: functional
Yes if MIC is below 3 µg/mL. No if not; exact matches included in No.

>>> print(df.to_string())
                                   compound  class_name
0  Cc1nnc(SCC2=C(C(=O)O)N3C(=O)[C@@H](NC(=O)Cn4cnnn4)[C@H]3SC2)s1         Yes
1  CC1=C(C(=O)O)N2C(=O)[C@@H](NC(=O)Cn3ccc4ccccc43)[C@H]2SC1          No
2  Cn1nnnc1SCC1=C(C(=O)O)N2C(=O)[C@@H](NC(=O)Cn3cccc3)[C@H]2SC1         Yes
3  Cn1nnnc1SCC1=C(C(=O)O)N2C(=O)[C@@H](NC(=O)Cn3cccc3C=O)[C@H]2SC1          No
4  CCOC(=O)C(C(=O)N[C@@H]1C(=O)N2C(C(=O)O)=C(COC(C)=O)CS[C@H]12)n1cccc1 (some centres not stated)          No

// query Given the entry `CC(=O)OCC1=C(C(=O)O)N2C(=O)[C@@H](NC(=O)Cn3cccc3C=O)[C@H]2SC1` , would its reported MIC be below 3 µg/mL?
// result No

// query Dear colleague, could you confirm whether MIC of `Cc1nnc(SCC2=C(C(=O)O)N3C(=O)[C@@H](NC(=O)Cn4ccc5ccccc54)[C@H]3SC2)s1` falls below 3 µg/mL? Thanks.
// result Yes

// query Lab log: compare recorded MIC with 3 µg/mL; is it strictly lower for `Cc1nnc(SCC2=C(C(=O)O)N3C(=O)[C@@H](NC(=O)Cn4cccc4)[C@H]3SC2)s1` ?
// result Yes

// query Given `CC(=O)OCC1=C(C(=O)O)N2C(=O)[C@@H](NC(=O)Cc3cccs3)[C@H]2SC1` , is recorded MIC strictly lower than 3 µg/mL?
// result Yes

// query MIC strictly < 3 µg/mL for this compound? `CC(=O)OCC1=C(C(=O)O)N2C(=O)[C@@H](NC(=O)Cn3cccc3)[C@H]2SC1`
// result No

// query A record lists `Cn1nnnc1SCC1=C(C(=O)O)N2C(=O)[C@@H](NC(=O)Cn3ccc4ccccc43)[C@H]2SC1` . Is its MIC below 3 µg/mL?
// result Yes

// query Does this compound meet the criterion MIC < 3 µg/mL? `Cc1nnc(SCC2=C(C(=O)O)N3C(=O)[C@@H](NC(=O)Cn4cccc4C=O)[C@H]3SC2)s1`
// result Yes

---

- Test system: Klebsiella aerogenes
- Method description: Antibacterial activity against Enterobacter aerogenes after 17 hrs by serial two fold dilution method
- Format: functional
Value type: MIC (µg/mL)
Numbers only, in µg/mL.

Some solved entries appear below for comparison.
>>> print(df.to_string())
                                   compound  recorded_result
0  CCOC(=O)C(C(=O)N[C@@H]1C(=O)N2C(C(=O)O)=C(COC(C)=O)CS[C@H]12)n1cccc1 (some centres undefined)               25
1  Cn1nnnc1SCC1=C(C(=O)O)N2C(=O)[C@@H](NC(=O)Cn3cccc3)[C@H]2SC1               25

The record that follows has no MIC shown yet.
// query Determine from records and report MIC for `Cc1nnc(SCC2=C(C(=O)O)N3C(=O)[C@@H](NC(=O)Cn4cccc4)[C@H]3SC2)s1`
// result 100

---

Assignment: determine reported MIC for the given molecules.
- System: Pseudomonas aeruginosa
- Method description: Antibacterial activity against Pseudomonas aeruginosa after 17 hrs by serial two fold dilution method
- Format: functional

Use these answered entries as a reference point.
                                   molecule  value_type  recorded_result
0  Cc1nnc(SCC2=C(C(=O)O)N3C(=O)[C@@H](NC(=O)Cn4ccc5ccccc54)[C@H]3SC2)s1         MIC      > 100 µg/mL
1  CCOC(=O)C(C(=O)N[C@@H]1C(=O)N2C(C(=O)O)=C(COC(C)=O)CS[C@H]12)n1cccc1 (some centres undefined)         MIC      > 100 µg/mL
2  CC1=C(C(=O)O)N2C(=O)[C@@H](NC(=O)Cn3ccc4ccccc43)[C@H]2SC1         MIC      > 100 µg/mL

Moving on to another molecule below.
// query Give MIC for the following molecule: `Cc1nnc(SCC2=C(C(=O)O)N3C(=O)[C@@H](NC(=O)Cn4cccc4C=O)[C@H]3SC2)s1`
// result > 100 µg/mL
